molecular target: RET (Homo sapiens); construct: RET tyrosine kinase domain (human recombinant RET expressed in Sf9 insect cells); experiment: luminescent ATP-to-ADP conversion kinase assay (IGF1Rtide substrate, […] ATP), in the dark
Sequence (P07949 724-1016 limits assumed): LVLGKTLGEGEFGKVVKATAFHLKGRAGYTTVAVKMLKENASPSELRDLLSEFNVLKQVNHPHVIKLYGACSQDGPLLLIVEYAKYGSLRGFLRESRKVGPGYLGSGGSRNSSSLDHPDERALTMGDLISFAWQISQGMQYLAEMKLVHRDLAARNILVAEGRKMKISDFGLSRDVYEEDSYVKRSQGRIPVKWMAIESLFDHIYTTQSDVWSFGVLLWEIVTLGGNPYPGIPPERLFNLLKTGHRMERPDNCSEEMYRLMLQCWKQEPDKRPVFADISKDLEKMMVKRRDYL
metric: IC50 (nM)
Quick reminder: number only, in nM, skip the unit.

GET /values?readout=IC50&system=RET (Homo sapiens)&item= CC(C)n1nc(/N=N/c2ccccc2)c2c(N)ncnc21 150
